The origin of these recorded values is ChEMBL document CHEMBL1127494.

target: Protein kinase C gamma type (Homo sapiens)
pIC50: −log10 of the molar value.

| compound | pIC50 |
| --- | --- |
| COCc1cc(O)c(O)c(O)c1-c1c(COC)cc(O)c(O)c1O | 4.30 |

* * *

assay: Inhibition of c-AMP dependent kinase (PKA) catalytic subunit; parameters: species or system Bos taurus
pIC50: −log10 of the molar value.
experimental-endpoint: pIC50

| compound | operator | val |
| --- | --- | --- |
| OCc1cc(OCc2ccccc2)c(OCc2ccccc2)c(OCc2ccccc2)c1-c1c(CO)cc(OCc2ccccc2)c(OCc2ccccc2)c1OCc1ccccc1 | = | 4.68 |
| COc1c(OCc2ccccc2)c(OCc2ccccc2)cc2c1-c1c(cc(OCc3ccccc3)c(OCc3ccccc3)c1OC)C[N+]1(C2)Cc2cc(OCc3ccccc3)c(OCc3ccccc3)c(OC)c2-c2c(cc(OCc3ccccc3)c(OCc3ccccc3)c2OC)C1 | = | 4.82 |
| CCOC(=O)c1cc(OCc2ccccc2)c(OCc2ccccc2)c(OCc2ccccc2)c1-c1c(C(=O)OCC)cc(OCc2ccccc2)c(OCc2ccccc2)c1OCc1ccccc1 | = | 4.72 |
| COCc1cc(O)c(O)c(O)c1-c1c(COC)cc(O)c(O)c1O | < | 3.66 |
| O=C1OCC2O[C@@H](O)C3OC(=O)c4cc(O)c(O)c(O)c4-c4c(cc(O)c(O)c4O)C(=O)OC3C2OC(=O)c2cc(O)c(O)c(O)c2-c2c1cc(O)c(O)c2O (some centres not stated) | < | 3.66 |
| O=C(O[C@@H]1OC2COC(=O)c3cc(O)c(O)c(O)c3-c3c(cc(O)c(O)c3O)C(=O)OC2C2OC(=O)c3cc(O)c(O)c(O)c3-c3c(cc(O)c(O)c3O)C(=O)OC21)c1cc(O)c(O)c(O)c1 (some centres not stated) | < | 3.66 |
| O=C(O[C@@H]1O[C@@H]2COC(=O)c3cc(O)c(O)c(O)c3-c3c(cc(O)c(O)c3O)C(=O)O[C@H]([C@H]1OC(=O)c1cc(O)c(O)c(O)c1)[C@@H]2OC(=O)c1cc(O)c(O)c(O)c1)c1cc(O)c(O)c(O)c1 [PUNICAFOLIN] | < | 3.66 |

* * *

target: UniProtKB P17252
experimental-endpoint: IC50 (µM)

| compound | experimental-target | val |
| --- | --- | --- |
| COCc1cc(O)c(O)c(O)c1-c1c(COC)cc(O)c(O)c1O | UniProtKB P17252 | 43 |

* * *

target: Protein kinase C (PKC); assay: Inhibitory activity against protein kinase C of rat brain
Documented IC50 across a set of compounds
experimental-endpoint: IC50 (µM)

| compound | unit-label | operator | val |
| --- | --- | --- | --- |
| O=C(O[C@@H]1O[C@@H]2COC(=O)c3cc(O)c(O)c(O)c3-c3c(cc(O)c(O)c3O)C(=O)O[C@H]([C@H]1O)[C@@H]2O)c1cc(O)c(O)c(O)c1 | µM | = | 20 |
| BrCc1cc(OCc2ccccc2)c(OCc2ccccc2)c(OCc2ccccc2)c1-c1c(CBr)cc(OCc2ccccc2)c(OCc2ccccc2)c1OCc1ccccc1 | µM | = | 103 |
| COCc1cc(O)c(O)c(O)c1-c1c(COC)cc(O)c(O)c1O | µM | = | 98 |
| COc1c(OCc2ccccc2)c(OCc2ccccc2)cc2c1-c1c(cc(OCc3ccccc3)c(OCc3ccccc3)c1OC)C[N+]1(C2)Cc2cc(OCc3ccccc3)c(OCc3ccccc3)c(OC)c2-c2c(cc(OCc3ccccc3)c(OCc3ccccc3)c2OC)C1 | µM | = | 87 |
| COc1c(OCc2ccccc2)c(OCc2ccccc2)cc(CBr)c1-c1c(CBr)cc(OCc2ccccc2)c(OCc2ccccc2)c1OC | µM | > | 218 |
| O=C1OCC2O[C@@H](O)C3OC(=O)c4cc(O)c(O)c(O)c4-c4c(cc(O)c(O)c4O)C(=O)OC3C2OC(=O)c2cc(O)c(O)c(O)c2-c2c1cc(O)c(O)c2O (some centres not stated) | µM | = | 4 |
| COc1c(OCc2ccccc2)c(OCc2ccccc2)cc(C=O)c1-c1c(C=O)cc(OCc2ccccc2)c(OCc2ccccc2)c1OC | µM | > | 218 |

* * *

biological target: Protein kinase C (PKC); experiment: Inhibitory activity against protein kinase C of rat brain

| compound | unit-label | operator | IC50 |
| --- | --- | --- | --- |
| CCCCCCCCCCCCC/C=C/[C@@H](O)[C@@H](N)CO | µM | = | 40 |
| CCOC(=O)c1cc(O)c(O)c(O)c1-c1c(C(=O)OCC)cc(O)c(O)c1O | µM | > | 218 |
| CCOC(=O)c1cc(OCc2ccccc2)c(OCc2ccccc2)c(OC)c1-c1c(C(=O)OCC)cc(OCc2ccccc2)c(OCc2ccccc2)c1OC | µM | = | 94 |
| c1ccc(COc2cc3c(c(OCc4ccccc4)c2OCc2ccccc2)-c2c(cc(OCc4ccccc4)c(OCc4ccccc4)c2OCc2ccccc2)C[N+]2(C3)Cc3cc(OCc4ccccc4)c(OCc4ccccc4)c(OCc4ccccc4)c3-c3c(cc(OCc4ccccc4)c(OCc4ccccc4)c3OCc3ccccc3)C2)cc1 | µM | = | 131 |
| O=C(O[C@@H]1OC2COC(=O)c3cc(O)c(O)c(O)c3-c3c(cc(O)c(O)c3O)C(=O)OC2C2OC(=O)c3cc(O)c(O)c(O)c3-c3c(cc(O)c(O)c3O)C(=O)OC21)c1cc(O)c(O)c(O)c1 (stereo partly drawn) | µM | = | 3 |
| COC(=O)c1cc(O)c(O)c(O)c1-c1c(C(=O)OC)cc(O)c(O)c1O | µM | > | 218 |
| OCc1cc(OCc2ccccc2)c(OCc2ccccc2)c(O)c1-c1c(CO)cc(OCc2ccccc2)c(OCc2ccccc2)c1O | µM | > | 218 |
| O=Cc1cc(OCc2ccccc2)c(OCc2ccccc2)c(OCc2ccccc2)c1-c1c(C=O)cc(OCc2ccccc2)c(OCc2ccccc2)c1OCc1ccccc1 | µM | = | 131 |
| COC(=O)c1cc(OCc2ccccc2)c(OCc2ccccc2)c(OC)c1-c1c(C(=O)OC)cc(OCc2ccccc2)c(OCc2ccccc2)c1OC | µM | = | 97 |
| COc1c(OCc2ccccc2)c(OCc2ccccc2)cc(CO)c1-c1c(CO)cc(OCc2ccccc2)c(OCc2ccccc2)c1OC | µM | > | 218 |
| c1ccc(COc2cc3c(c(OCc4ccccc4)c2OCc2ccccc2)-c2c(cc(OCc4ccccc4)c(OCc4ccccc4)c2OCc2ccccc2)COC3)cc1 | µM | = | 180 |
| COc1cc2c(c(OC)c1OC)-c1c(cc(OC)c(OC)c1OC)COC2 | µM | > | 218 |
| O=C(O[C@@H]1O[C@@H]2COC(=O)c3cc(O)c(O)c(O)c3-c3c(cc(O)c(O)c3O)C(=O)O[C@H]([C@H]1OC(=O)c1cc(O)c(O)c(O)c1)[C@@H]2OC(=O)c1cc(O)c(O)c(O)c1)c1cc(O)c(O)c(O)c1 | µM | = | 4 |

* * *

Documented IC50 across a set of compounds
biological target: Protein kinase C (PKC); assay: Displacement of [3H]PDBU from protein kinase C; format: protein assay, Rattus norvegicus

| compound | IC50 |
| --- | --- |
| O=C(O[C@@H]1OC2COC(=O)c3cc(O)c(O)c(O)c3-c3c(cc(O)c(O)c3O)C(=O)OC2C2OC(=O)c3cc(O)c(O)c(O)c3-c3c(cc(O)c(O)c3O)C(=O)OC21)c1cc(O)c(O)c(O)c1 (stereo partly drawn) | < 50 µM |
| CCCCCCCCCCCCC/C=C/[C@@H](O)[C@@H](N)CO | 23 µM |
| CCOC(=O)c1cc(OCc2ccccc2)c(OCc2ccccc2)c(OCc2ccccc2)c1-c1c(C(=O)OCC)cc(OCc2ccccc2)c(OCc2ccccc2)c1OCc1ccccc1 | > 272 µM |
| Oc1cc2c(c(O)c1O)-c1c(cc(O)c(O)c1O)COC2 | 54 µM |
| O=C(O[C@@H]1O[C@@H]2COC(=O)c3cc(O)c(O)c(O)c3-c3c(cc(O)c(O)c3O)C(=O)O[C@H]([C@H]1OC(=O)c1cc(O)c(O)c(O)c1)[C@@H]2OC(=O)c1cc(O)c(O)c(O)c1)c1cc(O)c(O)c(O)c1 | < 50 µM |
| OCc1cc(OCc2ccccc2)c(OCc2ccccc2)c(OCc2ccccc2)c1-c1c(CO)cc(OCc2ccccc2)c(OCc2ccccc2)c1OCc1ccccc1 | > 272 µM |
| O=C1OCC2O[C@@H](O)C3OC(=O)c4cc(O)c(O)c(O)c4-c4c(cc(O)c(O)c4O)C(=O)OC3C2OC(=O)c2cc(O)c(O)c(O)c2-c2c1cc(O)c(O)c2O (stereo partly drawn) | < 50 µM |
| COc1c(OCc2ccccc2)c(OCc2ccccc2)cc2c1-c1c(cc(OCc3ccccc3)c(OCc3ccccc3)c1OC)C[N+]1(C2)Cc2cc(OCc3ccccc3)c(OCc3ccccc3)c(OC)c2-c2c(cc(OCc3ccccc3)c(OCc3ccccc3)c2OC)C1 | > 272 µM |
